Reference source: ChEMBL document CHEMBL1201862

- System: SF-295
- protocolSummary: NCI tumour cell line growth inhibition, 48 h
Activity calls are given as the source filed them. Rule as the data show it: active = GI50 up to about 1.1 µM and inactive = higher.
Could you please pick one outcome from this set? active, inactive

Below are worked cases with known answers.
COc1ccc(C2C3CCc4ccccc4C3=NN2S(=O)(=O)c2cccc(C(=O)O)c2OC)cc1 (stereo not drawn): inactive
CCOC(O)C(F)(F)F (stereo not drawn): inactive
CC(=O)OCc1cn(S(=O)(=O)c2ccc(C)cc2)cn1: inactive

What did this assay record as the result for COC1=CC(=O)C(C2CC(=O)c3c(O)cc(O)cc3O2)=CC1=O (stereo not drawn) ?
inactive

###

- Tested on: A498
- protocolSummary: NCI tumour cell line growth inhibition, 48 h
The source made the active and inactive calls. Cut-off read from the data, not from the text of the source: active = GI50 up to about 1.1 µM and inactive = higher.
endpoint: GI50

Known GI50 results, listed for orientation:
CCC(CN(C)C)C(=O)c1ccco1 (stereo unspecified): > 100 µM (inactive)
O=C(Cc1nc2ccccc2c(=O)n1-c1ccccc1Cl)c1ccncc1: > 100 µM (inactive)
O=C(N/N=C(/CCN1CCCC1)CC(c1ccccc1)c1c(O)c2ccccc2oc1=O)c1ccncc1 (stereo unspecified): > 100 µM (inactive)
CCN(CC)CCC(=O)/C=C/c1ccccc1: 17.8 µM (inactive)
O=[N+]([O-])c1ccc(-c2csc(=[N+]3CCCCC3)s2)cc1: 2.18 µM (inactive)

Which GI50 is reported for this molecule? CCOC(CI)O[C@@H]1C=C[C@H](OC(C)=O)C1 (stereo partly specified)
> 100 µM (inactive)
